Listing of entries alongside the reported glycan array binding signal (z-score).
# test target: Gal(b1-3)[Neu5Ac(a2-6)]GlcNAc(b1-4)Gal(b1-4)Glc
# measurement protocol: glycan array binding signal (z-score within array); higher = stronger binding
# condition parameters: glycan notation: IUPAC condensed, linker removed
Many of the other results were omitted from the sample, so the strongest signals are more common in it than they were.
Could you respond with only the numeric value?

| binder | observed |
| --- | --- |
| XL-35 (Xenopus laevis) (protein) MLVHILLLLVTGGLSQSCDPVVIVASKNMVKQLDCDKFRNCKEIKDSNEEAQDGIYTLTSPDGISYQTFCDMTTNGGGWTLVASVHENNMAGKCTIGDRWSSQQGNRADYPEGDGNWANYNTFGSAGGATSDDYKNPGYYDIEAYNLGVWHVPNKTPLSVWRNSSLQRYRTTDGILFKHGGNLFSLYRIYPVKYGIGSCSKDSGPTVPVVYDLGSANLTASFYSPGFRSQFTPGYIQFRPINTEKAALALCPGMKMESCNVEHVCIGGGGYFPEADPRQCGDFAAYDFNGYGTKKFNSAGIEITEAAVLLFYL | 0.794 |

Supply recorded glycan array binding signal (z-score) for Sp8391B-bot-388-20-388 (Bacteroides ovatus) (protein) GCQNNDENEQHYDNKLFISASNFTKEILFKAGDTNVETGLSVAIAKPEEHDIKVTMSPAPELLSTYKLAYYDETAVLLSEEHYSMPETSTTIKSGSIVSPELPIEFINTGELDIKTTYVLPVTIKSVEGIGVLQSAKTYYYVFRGASLINVVCNISRNRAYPDFKNDSKFNNLTENTMEILFKANSFPNTLNTLMGIESNYLLRIGDATIPNNQLQVATSVNNCTSADLQLESGKWYHVAVAFNKGNVKVYINGVEKLSGSTGKSSVSLGAKHTNEEDGSRCFWVGYSYKDDRYFDGVVSEVRIWNRALTAEEIQATNHFYTIEPESEGLIAYWKFDEGSGTVAKDYSVSGYDLTIEKEPKWESVSLPQ here.
-0.044

The origin of these recorded values is the supplement of paper PMC8728848.
